EXPERIMENTAL SYSTEM: T1, Human CD137 ECD (human)
T1 construct: also called human CD137 extracellular domain; recombinant human CD137
T1 sequence (chain, as listed by the source limits assumed): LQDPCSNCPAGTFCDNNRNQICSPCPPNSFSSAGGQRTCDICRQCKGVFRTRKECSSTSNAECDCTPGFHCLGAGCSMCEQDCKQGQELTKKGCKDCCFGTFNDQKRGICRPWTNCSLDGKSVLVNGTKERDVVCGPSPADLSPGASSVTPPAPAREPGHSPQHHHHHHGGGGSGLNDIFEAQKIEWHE
PROTOCOL TEXT: SPR Biacore T200, 37 C, Ab captured on anti-human Fc, antigen as analyte;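 further: recombinant human CD137 flowed over antibodies held by amine-coupled anti-human Fc on a CM4 chip, run in ACES pH 7.4 buffer with 150 mM NaCl and 0.05% Tween 20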
I'd be grateful if you could share measured kon for these entries.
Lab note: write values as number then unit, every time.

Using the record for H1651L0581 (antibody, V domains shown, Dual-Ig, IgG; also called dBBDu183H1651/dBBDu072L0581) VH: QVQLVESGGGLVQPGRSLRLSCAASGFVFSNVWFHWVRQAPGKGLEWVAQIKDKYNAYADYYAPSVEGRFTISRDDSKNSIYLQMNSLKTEDTAVYYCHYVHYASASTLLPAEGVDAWGQGTTVTVSS VL: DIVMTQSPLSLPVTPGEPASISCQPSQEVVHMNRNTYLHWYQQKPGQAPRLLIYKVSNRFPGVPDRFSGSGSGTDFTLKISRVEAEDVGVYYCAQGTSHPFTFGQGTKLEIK , report its kon.
14000 M⁻¹ s⁻¹

I have this binder here, H1673L0943 (antibody, V domains shown, Dual-Ig, IgG; also called dBBDu183H1673/dBBDu072L0943) VH: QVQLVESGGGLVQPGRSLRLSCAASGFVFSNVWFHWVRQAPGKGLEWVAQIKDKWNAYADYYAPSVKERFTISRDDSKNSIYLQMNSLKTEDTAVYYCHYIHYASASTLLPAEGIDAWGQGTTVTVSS VL: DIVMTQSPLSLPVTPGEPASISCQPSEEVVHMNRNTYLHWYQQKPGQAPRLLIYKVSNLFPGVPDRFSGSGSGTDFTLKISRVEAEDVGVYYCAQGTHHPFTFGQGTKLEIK , and I need its recorded kon.
12200 M⁻¹ s⁻¹

Please give the measured kon for this binder: H0868L0581 (antibody, V domains shown, Dual-Ig, IgG; also called H868L581; dBBDu183H0868/dBBDu072L0581) VH: QVQLVESGGGLVQPGRSLRLSCAASGFKFSNVWMHWVRQAPGKGLEWVAQIKDKYNAYAAYYAPSVKGRFTISRDDSKNSIYLQMNSLKTEDTAVYYCHYVHYASASTLLPAFGVDAWGQGTTVTVSS VL: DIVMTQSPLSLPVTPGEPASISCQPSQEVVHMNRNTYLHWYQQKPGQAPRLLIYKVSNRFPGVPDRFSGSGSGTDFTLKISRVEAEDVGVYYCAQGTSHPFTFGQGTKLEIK
12200 M⁻¹ s⁻¹
